system: Aspergillus niger; experiment: Antimicrobial activity against Aspergillus niger MTCC 282 after 72 hr by serial broth dilution method; type: functional; settings: MTCC 282, 72 h
The label is met for MIC below 100 µg/mL and not met for MIC equal to or exceeding 100 µg/mL.

Req: Would you kindly verify if MIC of Cc1ccn2c(CN(C)C)c(-c3cccc(F)c3F)nc2c1 is strictly less than 100 µg/mL?
Resp: not met

Req: Moving on to Cc1ccn2c(CN(C)C)c(-c3cc([N+](=O)[O-])c(O)cc3O)nc2c1
Resp: not met

Req: Next entry: Cc1ccn2c(CN(C)C)c(-c3ccc([N+](=O)[O-])cc3Br)nc2c1
Resp: not met

Req: What would you report for Cc1ccn2c(CN(C)C)c(-c3ccc(F)cc3F)nc2c1 ?
Resp: met

Req: Again, but for Cc1ccn2c(CN(C)C)c(-c3ccc(O)c([N+](=O)[O-])c3)nc2c1
Resp: not met

Req: And Cc1ccn2c(CN(C)C)c(-c3ccccc3O)nc2c1 ?
Resp: not met

Req: Next entry: Cc1ccn2c(CN(C)C)c(-c3ccc(O)cc3O)nc2c1
Resp: not met

Req: Now the same for Cc1ccn2c(CN(C)C)c(-c3ccccc3Br)nc2c1
Resp: met

Req: For Cc1ccn2c(CN(C)C)c(-c3ccc(F)c(Cl)c3)nc2c1 then?
Resp: not met

----------
Provide the reported MIC of each item.
system: Candida albicans; test: Antimicrobial activity against Candida albicans MTCC 227 after 72 hr by serial broth dilution method; format: functional; conditions: MTCC 227, 72 h
Just the number please, in µg/mL, no unit attached.

Req: Test system Candida albicans; read-out MIC; what value for COC1=CC(=O)C[C@@H](C)[C@]12Oc1c(Cl)c(OC)cc(OC)c1C2=O [GRISEOFULVIN] ?
Resp: 500

Req: Let us now turn to Cc1ccn2c(CN(C)C)c(-c3ccc(O)cc3O)nc2c1
Resp: 1000

Req: Cc1ccn2c(CN(C)C)c(-c3ccc(F)cc3F)nc2c1 , same question.
Resp: 500

Req: Same lookup for Cc1ccn2c(CN(C)C)c(-c3ccccc3Br)nc2c1 , please.
Resp: 500

Req: Here is the next molecule: Cc1ccn2c(CN(C)C)c(-c3cccc(Br)c3F)nc2c1
Resp: 1000

Req: Would you kindly repeat that for Cc1ccn2c(CN(C)C)c(-c3cc([N+](=O)[O-])c(O)cc3O)nc2c1 ?
Resp: 500

Req: Same question for Cc1ccn2c(CN(C)C)c(-c3ccc([N+](=O)[O-])cc3Br)nc2c1 please.
Resp: 1000

Req: Lookup Cc1ccn2c(CN(C)C)c(-c3cccc(F)c3F)nc2c1
Resp: 125

Req: Quick one: Cc1ccn2c(CN(C)C)c(-c3ccc(O)c([N+](=O)[O-])c3)nc2c1
Resp: 1000

Req: # repeat for Cc1ccn2c(CN(C)C)c(-c3c(F)cccc3F)nc2c1
Resp: 1000

Req: # repeat for Cc1ccn2c(CN(C)C)c(-c3cccc(Cl)c3)nc2c1
Resp: 250

Req: Next molecule up: Cc1ccn2c(CN(C)C)c(-c3ccc(F)c(Cl)c3)nc2c1
Resp: 250

Req: Field entry: Cc1ccn2c(CN(C)C)c(-c3ccccc3O)nc2c1
Resp: 1000
